For reference, IC50 measured on Lysine-specific histone demethylase 1A (Homo sapiens):

**Q:** Tell me the measured IC50 of CNc1cccc(COc2ccc(CN3CCCc4cccc(NC(=O)c5cc6sccc6n5C)c43)cc2)c1 , please.
**A:** > 50000 nM

**Q:** Now the compound O=C(Nc1cccc2c1N(Cc1ccc(OC3CCNCC3)cc1)CCC2)c1cc2ccccc2o1
**A:** 0.53 nM

**Q:** Now the compound COc1ccc2c(c1)cc(C(=O)Nc1cccc3c1N(Cc1ccc(OC4CCNCC4)cc1)CCC3)n2C
**A:** > 50 nM

**Q:** Now the compound Cn1c(C(=O)Nc2cccc3c2N(Cc2ccc(O[C@H]4CC[C@H](N)CC4)cc2)CCC3)cc2sccc21
**A:** 36.6 nM

**Q:** Now the compound O=C(Nc1cccc2c1N(Cc1ccc(OC3CCNCC3)cc1)CCC2)c1cc2ccccc2n1C(F)F
**A:** 0.39 nM

====

For reference, log10 IC50 measured on UniProt O60341:
A difference of one corresponds to tenfold IC50; all values are log10 with IC50 in nM.

**Q:** Tell me the measured log10 IC50 of Cn1c(C(=O)Nc2cccc3c2N(Cc2ccc(OCC4CCNCC4)cc2)CCC3)cc2sccc21 , please.
**A:** 1.58

**Q:** Now the molecule Cn1c(C(=O)Nc2cccc3c2N(Cc2ccc(OC4CCNC4)cc2)CCC3)cc2sccc21 (centres undefined)
**A:** 1.67

**Q:** Now the molecule CN1CCC(Oc2ccc(CN3CCCc4cccc(NC(=O)c5cc6sccc6n5C)c43)cc2)CC1
**A:** 1.58

**Q:** Now the molecule Cn1ccc2cc(C(=O)Nc3cccc4c3N(Cc3ccc(OC5CCNCC5)cc3)CCC4)ccc21
**A:** 1.41

**Q:** Now the molecule O=C(Nc1cccc2c1N(Cc1ccc(OC3CCNCC3)cc1)CCC2)c1ccc(C(F)(F)F)cc1F
**A:** 0.71

**Q:** Now the molecule O=C(Nc1cccc2c1N(Cc1ccc(OC3CCNCC3)cc1)CCC2)c1cccc2[nH]ccc12
**A:** -0.27

**Q:** Now the molecule O=C(Nc1cccc2c1N(Cc1ccc(OC3CCNCC3)cc1)CCC2)c1ccc2[nH]ccc2c1
**A:** 0.66

**Q:** Now the molecule Cn1c(C(=O)Nc2cccc3c2N(Cc2ccc(OC4CCNCC4)cc2)CCC3)cc2ccccc21
**A:** -1.30

====

# method summary: Stability in human liver microsomes assessed as parent compound remaining preincubated for 10 mins followed by NADPH regenerating system addition and measured up to 60 mins by LC-MS/MS analysis
# Type: ADME, Microsome
# condition parameters: time 10-70 min, read-out: Stabilty
Exercise: for every item that follows, state its recorded remaining at 1 h.
Write it as a number; the unit % goes unstated.

**Q:** Tell me the measured remaining at 1 h of Cn1c(C(=O)Nc2cccc3c2N(Cc2ccc(OC4CCNCC4)cc2)CCC3)cc2ccccc21 , please.
**A:** 20.3

**Q:** Now the compound Cn1c(C(=O)Nc2cccc3c2N(Cc2ccc(OC4CCNCC4)cc2)CCC3)cc2cc(F)ccc21
**A:** 57.5

====

# assayed system: Lysine-specific histone demethylase 1A (Homo sapiens, UniProt O60341)
# if measured IC50 < 2 nM: Fulfilled  # else: Not fulfilled

**Q:** Determine if Cn1c(C(=O)Nc2cccc3c2N(Cc2ccc(OC4CCNCC4)cc2)CCC3)cc2cc(F)ccc21 shows IC50 strictly lower than 2 nM.
**A:** Fulfilled

**Q:** Now the molecule CCOCc1cccc(NC(=O)c2cc3sccc3n2C)c1COc1ccc(OC[C@H]2CCNC2)cc1
**A:** Fulfilled

**Q:** Now the molecule CN(C)c1cccc(COc2ccc(CN3CCCc4cccc(NC(=O)c5cc6sccc6n5C)c43)cc2)c1
**A:** Not fulfilled

**Q:** Now the molecule Cn1c(C(=O)Nc2cccc3c2N(Cc2ccc(OC4CCNCC4)cc2)CCC3)cc2sccc21
**A:** Not fulfilled

**Q:** Now the molecule Cn1c(C(=O)Nc2cccc3c2N(Cc2ccc(OCc4cccc(C(N)=O)c4)cc2)CCC3)cc2sccc21
**A:** Not fulfilled

**Q:** Now the molecule O=C(Nc1cccc2c1N(Cc1ccc(OC3CCNCC3)cc1)CCC2)c1ccc(C(F)(F)F)cc1
**A:** Fulfilled

**Q:** Now the molecule Cn1cc(C(=O)Nc2cccc3c2N(Cc2ccc(OC4CCNCC4)cc2)CCC3)c2ccccc21
**A:** Not fulfilled

**Q:** Now the molecule Cn1c(C(=O)Nc2cccc3c2N(Cc2ccc(OC4CCNCC4)cc2)CCC3)cc2ccc(Cl)cc21
**A:** Fulfilled

**Q:** Now the molecule Cn1ccc2cccc(C(=O)Nc3cccc4c3N(Cc3ccc(OC5CCNCC5)cc3)CCC4)c21
**A:** Not fulfilled

====

# assayed system: CYP2C9 (Homo sapiens, UniProt P11712)
# Sequence (P11712 whole entry): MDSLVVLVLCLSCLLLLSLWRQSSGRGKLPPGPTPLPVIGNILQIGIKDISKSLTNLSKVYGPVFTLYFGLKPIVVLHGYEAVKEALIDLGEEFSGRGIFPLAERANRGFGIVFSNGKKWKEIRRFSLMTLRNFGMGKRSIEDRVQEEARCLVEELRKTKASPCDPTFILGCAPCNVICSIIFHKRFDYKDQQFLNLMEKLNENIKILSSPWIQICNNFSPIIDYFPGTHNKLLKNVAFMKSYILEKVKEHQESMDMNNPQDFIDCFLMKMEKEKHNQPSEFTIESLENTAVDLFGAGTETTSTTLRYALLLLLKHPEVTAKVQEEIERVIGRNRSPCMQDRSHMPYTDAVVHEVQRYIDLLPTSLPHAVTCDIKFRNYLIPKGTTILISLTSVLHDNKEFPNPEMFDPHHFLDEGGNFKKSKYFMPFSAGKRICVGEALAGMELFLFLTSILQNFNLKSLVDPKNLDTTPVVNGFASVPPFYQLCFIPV
# method summary: Inhibition of CYP2C9 in human liver microsomes at 10 uM using CYP substrate preincubated for 10 mins followed by NADPH generating system addition and measured after 10 mins by LC-MS/MS analysis relative to control
# Assay type: ADME
# condition parameters: time 20 min
readout name: inhibition at 10 min, 10 µM
State the result as a value with its unit after it.

**Q:** Tell me the measured inhibition at 10 min, 10 µM of Cn1c(C(=O)Nc2cccc3c2N(Cc2ccc(OC4CCNCC4)cc2)CCC3)cc2cc(F)ccc21 , please.
**A:** 0%

====

Exercise: for every item that follows, state its recorded pIC50.
# Test system: THP-1
# method summary: cells
# condition parameters: Homo sapiens, THP-1, 72 h
# Description: Antiproliferative activity against human THP-1 cells incubated for 72 hrs by CCK8 assay
# log scale: pIC50 equals minus log10 of the concentration in mol/L

**Q:** Tell me the measured pIC50 of Cn1c(C(=O)Nc2cccc3c2N(Cc2ccc(OC4CCNCC4)cc2)CCC3)cc2ccccc21 , please.
**A:** 5.01

**Q:** Now the compound Cn1c(C(=O)Nc2cccc3c2N(Cc2ccc(OC4CCNCC4)cc2)CCC3)cc2sccc21
**A:** 4.74

**Q:** Now the compound Cn1c(C(=O)Nc2cccc3c2N(Cc2ccc(OC4CCNCC4)cc2)CCC3)cc2cc(F)ccc21
**A:** 5.02

**Q:** Now the compound Cn1c(C(=O)Nc2cccc3c2N(Cc2ccc(OCC4CCNCC4)cc2)CCC3)cc2sccc21
**A:** 4.69

**Q:** Now the compound O=C(Nc1cccc2c1N(Cc1ccc(OC3CCNCC3)cc1)CCC2)c1cc2ccccc2n1CCF
**A:** 5.01

**Q:** Now the compound CCn1c(C(=O)Nc2cccc3c2N(Cc2ccc(OC4CCNCC4)cc2)CCC3)cc2ccccc21
**A:** 4.99

====

# assayed system: Amine oxidase [flavin-containing] A (Homo sapiens, UniProt P21397)
# Sequence (P21397 whole entry): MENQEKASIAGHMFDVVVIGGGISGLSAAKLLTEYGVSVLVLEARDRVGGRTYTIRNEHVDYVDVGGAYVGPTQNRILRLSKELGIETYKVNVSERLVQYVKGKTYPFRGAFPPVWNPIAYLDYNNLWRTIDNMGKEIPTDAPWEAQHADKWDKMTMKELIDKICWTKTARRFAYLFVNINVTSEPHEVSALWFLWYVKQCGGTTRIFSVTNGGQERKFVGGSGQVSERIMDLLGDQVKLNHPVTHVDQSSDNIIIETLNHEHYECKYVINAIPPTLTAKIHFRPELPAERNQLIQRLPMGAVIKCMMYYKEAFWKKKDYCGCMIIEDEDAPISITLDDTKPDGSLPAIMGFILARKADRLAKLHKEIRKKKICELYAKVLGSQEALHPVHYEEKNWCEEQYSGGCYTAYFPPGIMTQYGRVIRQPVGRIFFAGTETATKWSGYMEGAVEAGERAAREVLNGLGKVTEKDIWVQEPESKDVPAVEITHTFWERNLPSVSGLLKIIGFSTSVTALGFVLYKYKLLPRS
# method summary: Inhibition of recombinant N-terminal FLAG-tagged human MAOA expressed in baculovirus infected Sf9 insect cells using luminogenic MAO substrate measured after 1 hr by MAO-glo assay
pIC50: −log10 of the molar value.
readout name: pIC50

**Q:** Tell me the measured pIC50 of Cn1c(C(=O)Nc2cccc3c2N(Cc2ccc(OC4CCNCC4)cc2)CCC3)cc2cc(F)ccc21 , please.
**A:** < 4.30

**Q:** Now the compound Cn1c(C(=O)Nc2cccc3c2N(Cc2ccc(OC4CCNCC4)cc2)CCC3)cc2ccccc21
**A:** < 4.30

====

Exercise: for every item that follows, state its recorded pIC50.
# assayed system: Amine oxidase [flavin-containing] B (Homo sapiens, UniProt P27338)
# Sequence (P27338 whole entry): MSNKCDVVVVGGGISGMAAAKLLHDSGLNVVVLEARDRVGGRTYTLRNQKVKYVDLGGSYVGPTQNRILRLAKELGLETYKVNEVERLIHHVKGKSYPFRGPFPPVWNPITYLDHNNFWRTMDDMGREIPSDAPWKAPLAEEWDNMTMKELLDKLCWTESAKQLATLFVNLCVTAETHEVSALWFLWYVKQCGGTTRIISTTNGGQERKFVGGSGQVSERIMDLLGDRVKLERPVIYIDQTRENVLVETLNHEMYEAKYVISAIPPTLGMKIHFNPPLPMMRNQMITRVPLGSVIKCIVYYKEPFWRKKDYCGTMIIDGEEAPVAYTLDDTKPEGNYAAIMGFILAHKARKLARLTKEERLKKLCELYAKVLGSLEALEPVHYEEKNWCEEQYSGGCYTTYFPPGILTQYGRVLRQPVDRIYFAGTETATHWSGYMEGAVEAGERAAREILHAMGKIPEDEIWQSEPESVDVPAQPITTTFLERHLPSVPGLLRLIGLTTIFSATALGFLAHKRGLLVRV
# method summary: Inhibition of recombinant N-terminal FLAG-tagged human MAOB expressed in baculovirus infected Sf9 insect cells using luminogenic MAO substrate measured after 1 hr by MAO-glo assay
pIC50: −log10 of the molar value.

**Q:** Tell me the measured pIC50 of Cn1c(C(=O)Nc2cccc3c2N(Cc2ccc(OC4CCNCC4)cc2)CCC3)cc2cc(F)ccc21 , please.
**A:** < 4.30

**Q:** Now the compound Cn1c(C(=O)Nc2cccc3c2N(Cc2ccc(OC4CCNCC4)cc2)CCC3)cc2ccccc21
**A:** < 4.30

====

# method summary: Stability in human liver microsomes assessed as parent compound remaining measured 60 mins after mins by LC-MS/MS analysis
# Type: ADME, Microsome
# condition parameters: liver microsomes, read-out: Stabilty
readout name: remaining at 1 h (%)
Write it as a number; the unit % goes unstated.

**Q:** Tell me the measured remaining at 1 h of Cn1c(C(=O)Nc2cccc3c2N(Cc2ccc(OC4CCNCC4)cc2)CCC3)cc2ccccc21 , please.
**A:** 101

====

Exercise: for every item that follows, state its recorded pIC50.
# assayed system: Lysine-specific histone demethylase 1A (Homo sapiens, UniProt O60341)
# log scale: pIC50 equals minus log10 of the concentration in mol/L

**Q:** Tell me the measured pIC50 of Cn1c(C(=O)Nc2cccc3c2N(Cc2ccc(O[C@H]4CC[C@@H](N)CC4)cc2)CCC3)cc2sccc21 , please.
**A:** 7.42

**Q:** Now the molecule O=C(Nc1cccc2c1N(Cc1ccc(OC3CCNCC3)cc1)CCC2)c1cc2ccccc2n1CCF
**A:** 10.22

**Q:** Now the molecule Cn1c(C(=O)Nc2cccc3c2N(Cc2ccc(OC[C@H]4CCNC4)cc2)CCC3)cc2sccc21
**A:** 6.83

**Q:** Now the molecule Cn1nc(C(=O)Nc2cccc3c2N(Cc2ccc(OC4CCNCC4)cc2)CCC3)c2ccccc21
**A:** 9.01

**Q:** Now the molecule Cn1c(C(=O)Nc2cccc3c2N(Cc2ccc(OCCCN)cc2)CCC3)cc2sccc21
**A:** 7.32
